# Test system: sDMA (SmD3me2s) in human PBMCs
# experiment summary: Western blotting for sDMA in PHA-L activated human PBMCs
# Format: cell-based
# condition set: PBMC, 72 h, 3 days
measure name: IC50 (nM)

cpd smiles: Nc1ncnc2c1ccn2[C@@H]1O[C@H]([C@@H]2OCc3ccc(Cl)cc32)[C@@H](O)[C@H]1O
unit spec: nM
val: 16

----------
# system tested: PRMT5/MEP50 complex (Homo sapiens (Human))
# Sequence (O14744 whole entry): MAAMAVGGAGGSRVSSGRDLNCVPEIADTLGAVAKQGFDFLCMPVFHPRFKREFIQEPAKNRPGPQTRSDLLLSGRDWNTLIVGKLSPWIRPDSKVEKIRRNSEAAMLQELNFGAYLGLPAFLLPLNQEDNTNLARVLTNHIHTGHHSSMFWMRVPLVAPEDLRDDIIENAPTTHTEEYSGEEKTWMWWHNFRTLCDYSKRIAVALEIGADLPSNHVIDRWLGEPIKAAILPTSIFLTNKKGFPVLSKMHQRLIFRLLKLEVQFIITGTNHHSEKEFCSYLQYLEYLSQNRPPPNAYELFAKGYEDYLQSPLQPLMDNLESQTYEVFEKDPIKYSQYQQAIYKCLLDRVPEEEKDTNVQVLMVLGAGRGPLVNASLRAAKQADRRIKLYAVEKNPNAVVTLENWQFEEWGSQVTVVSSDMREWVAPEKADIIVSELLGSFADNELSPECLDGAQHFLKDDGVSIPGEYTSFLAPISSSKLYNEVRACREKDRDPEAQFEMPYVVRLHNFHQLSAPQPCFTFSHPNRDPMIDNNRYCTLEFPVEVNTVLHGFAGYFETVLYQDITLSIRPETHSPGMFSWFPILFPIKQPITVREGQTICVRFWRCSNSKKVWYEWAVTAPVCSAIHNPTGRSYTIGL
# Sequence (Q9BQA1 whole entry partner): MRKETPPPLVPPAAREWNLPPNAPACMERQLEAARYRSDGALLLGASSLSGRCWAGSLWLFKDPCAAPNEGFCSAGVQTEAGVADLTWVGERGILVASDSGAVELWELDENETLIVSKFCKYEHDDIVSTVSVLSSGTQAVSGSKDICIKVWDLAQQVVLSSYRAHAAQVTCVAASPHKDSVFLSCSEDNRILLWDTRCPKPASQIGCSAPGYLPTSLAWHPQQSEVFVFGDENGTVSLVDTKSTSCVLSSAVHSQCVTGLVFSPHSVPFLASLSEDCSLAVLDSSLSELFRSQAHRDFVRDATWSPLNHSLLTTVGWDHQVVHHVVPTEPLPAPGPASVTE
# experiment summary: Biochemical assay: PRMT5/MEP50 methylation of histone H4 based AcH4-23, SPA readout
# condition set: PRMT5/MEP50 2.5 nM, 300 nM AcH4-23, 1 μM 3H-SAM
pIC50: −log10 of the molar value. Counter-ions that a name gives are not always drawn.
Returns one of criterion met or criterion not met; criterion met when pIC50 is >= 8.

compound: Nc1ncnc2c1ccn2[C@@H]1O[C@H]([C@H]2OCCc3cc(Cl)sc32)[C@@H](O)[C@H]1O
classification: criterion not met

compound: Nc1ncnc2c1ccn2[C@@H]1C[C@H]([C@H]2OC(=O)c3cc(Cl)ccc32)[C@@H](O)[C@H]1O [Example 3B, hydrochloride]
classification: criterion not met

compound: Cc1ncnc2c1ccn2[C@@H]1O[C@H]([C@@H]2OC[C@@H](F)c3cc(Cl)ccc32)[C@@H](O)[C@H]1O
classification: criterion not met

compound: Nc1ncnc2c1ccn2[C@@H]1O[C@H]([C@H]2OCc3cc(Cl)ccc32)[C@@H](O)[C@H]1O
classification: criterion not met

compound: Cc1ncnc2c1ccn2[C@@H]1O[C@H]([C@@H]2OCCc3ccc(Cl)cc32)[C@@H](O)[C@H]1O
classification: criterion not met

compound: Nc1ncnc2c1ccn2[C@@H]1O[C@H]([C@@H]2OCOCc3cc(Cl)ccc32)[C@@H](O)[C@H]1O
classification: criterion not met

compound: Nc1ncnc2c1ccn2[C@@H]1O[C@H]([C@@H]2OC(=O)Cc3cc(Cl)ccc32)[C@@H](O)[C@H]1O
classification: criterion not met

compound: Cc1ncnc2c1ccn2[C@@H]1O[C@H]([C@@H]2OC(O)Cc3cc(Cl)ccc32)[C@@H](O)[C@H]1O (stereo partly shown)
classification: criterion not met

compound: Nc1ncnc2c1ccn2[C@@H]1O[C@H]([C@@H]2OCc3cc(F)c(F)cc32)[C@@H](O)[C@H]1O
classification: criterion met

compound: Nc1ncnc2c1ccn2[C@@H]1O[C@H]([C@@H]2OCCc3cc(Cl)c(Cl)cc32)[C@@H](O)[C@H]1O
classification: criterion met

compound: Nc1ncnc2c1ccn2[C@@H]1O[C@H]([C@@H]2OCCc3c(Cl)cccc32)[C@@H](O)[C@H]1O
classification: criterion met

compound: Cc1ncnc2c1ccn2[C@@H]1O[C@H]([C@H]2OCCc3cc(Cl)ccc32)[C@@H](O)[C@H]1O
classification: criterion not met

compound: Nc1ncnc2c1ccn2[C@@H]1O[C@H]([C@@H]2OCCc3c2ccc(Cl)c3F)[C@@H](O)[C@H]1O
classification: criterion met

compound: Nc1ncnc2c1ccn2[C@@H]1O[C@H]([C@@H]2OC(O)Cc3cc(Cl)ccc32)[C@@H](O)[C@H]1O (stereo partly shown)
classification: criterion not met

compound: Cc1ncnc2c1ccn2[C@@H]1O[C@H]([C@@H]2OCOc3c2ccc(F)c3F)[C@@H](O)[C@H]1O
classification: criterion met

compound: Nc1ncnc2c1ccn2[C@@H]1C[C@H]([C@@H]2OCc3cc(Cl)ccc32)[C@@H](O)[C@H]1O
classification: criterion not met

compound: Cc1ncnc2c1ccn2[C@@H]1O[C@H]([C@@H]2OCC(F)(F)c3ccccc32)[C@@H](O)[C@H]1O
classification: criterion not met

compound: Nc1ncnc2c1ccn2[C@@H]1O[C@H]([C@@H]2OCc3cc(Cl)ccc32)[C@@H](O)[C@H]1O
classification: criterion met

compound: Cc1ncnc2c1ccn2[C@@H]1O[C@H]([C@@H]2OCCc3cc(Cl)ccc32)[C@@H](O)[C@H]1O
classification: criterion met

compound: Nc1ncnc2c1c(F)cn2[C@@H]1O[C@H]([C@@H]2OCCc3cc(Cl)ccc32)[C@@H](O)[C@H]1O
classification: criterion met

compound: Nc1ncnc2c1ccn2[C@@H]1O[C@H]([C@@H]2OC[C@H](F)c3cc(Cl)ccc32)[C@@H](O)[C@H]1O
classification: criterion met

compound: Cc1cc2c(cc1Cl)CCO[C@H]2[C@H]1O[C@@H](n2ccc3c(N)ncnc32)[C@H](O)[C@@H]1O
classification: criterion met

compound: COC1Cc2cc(Cl)ccc2[C@H]([C@H]2O[C@@H](n3ccc4c(C)ncnc43)[C@H](O)[C@@H]2O)O1 (stereo partly shown)
classification: criterion not met
